# credit: PubChem BioAssay (NCI)

Kindly state TGI for each of the entries shown.
# Tested on: A498 renal
# method_summary: NCI tumour cell line growth inhibition, 48 h

Input: Entry C=C(C)C1CC=C(C)CC1 (configuration not stated) has what TGI?
Output: 1610 µM

Input: Also need `COc1ccc(-c2nc(Nc3ccc(-c4nc5ccccc5[nH]4)cc3)nc(N3CCOCC3)n2)cc1` , thanks.
Output: 3.57 µM

Input: Check CC(=O)[CH-]C(=O)c1ccccc1.CC(=O)[CH-]C(=O)c1ccccc1.CC1(C)OCC(C2OC3OC(C)(C)OC3C2[O-])O1.CC1(C)OCC(C2OC3OC(C)(C)OC3C2[O-])O1.[Ti+4] (configuration not stated) too.
Output: 30.2 µM

Input: Continue with CN1C(=O)C(C(N)=O)C2CC1(C)Oc1ccccc12 (configuration not stated)
Output: > 100 µM

Input: Now the same for CC(=O)[CH-]C(=O)c1ccccc1.CC(=O)[CH-]C(=O)c1ccccc1.CC[C@H](/C=C/C(C)[C@H]1CCC2[C@@H]3CC=C4C[C@@H]([O-])CC[C@]4(C)C3CC[C@@]21C)C(C)C.CC[O-].[Ti+4] (some centres not stated)
Output: > 100 µM

Input: What about `COc1ccc(/C=C/C(=N/NC(=O)N/N=C(/C=C/c2ccc(OC)cc2)C(C)(C)CN2CCCCC2)C(C)(C)CN2CCCCC2)cc1` ?
Output: 3.73 µM

Input: Could you do the same for CCOC(=O)C1C(c2ccc(O)c(OC)c2)c2c([nH][nH]c2=O)CC1(C)O (configuration not stated) , please?
Output: > 100 µM

Input: Check `CCOC(=O)c1ccc2c(c1)nc(/C=C/c1ccc(Cl)cc1)n2-c1cc(C(C)(C)C)[nH]n1` too.
Output: 41.7 µM

Input: Also, COc1c2c(cc3c1OCO3)C13C=CC(OC)CC1N(CC3)C2 (configuration not stated) please.
Output: > 100 µM

Input: Now consider `Cn1c(=O)c2ccc(-c3ccc(Br)cc3)nc2n(C)c1=O` and answer again.
Output: > 100 µM

Input: Now consider `Cc1cccc2nc3cccc(C(=O)NCCNCCNCCNC(=O)c4cccc5nc6cccc(C)c6nc45)c3nc12` .
Output: 0.363 µM

Input: Would you kindly repeat that for COC(=O)c1c2c(cc3c1CC1(C3)Cc3cc4c(c(C(C)=O)c3C1)CCC4)C=CC2 (configuration not stated) ?
Output: > 31.6 µM

Input: Another compound to check: `N#CC1(Nc2ccc(-c3ccc(NC4(C#N)CCCC4)cc3)cc2)CCCC1`
Output: > 100 µM

Input: Then COC(=O)NN1C(C)=C(C(=O)OC)C2(C#N)C(C(=O)OC)=C(C)N(NC(=O)OC)C12N (configuration not stated) ?
Output: > 100 µM

Input: Ok, now `O=C(N/C(=C\c1ccc(/C=C(\NC(=O)c2ccccc2)c2nc3cc(Cl)ccc3[nH]2)cc1)c1nc2cc(Cl)ccc2[nH]1)c1ccccc1`
Output: > 100 µM

Input: Moving on to `c1ccc(CN2CCC3(CC2)SSC2(CCN(Cc4ccccc4)CC2)SS3)cc1`
Output: > 100 µM

Input: Record: `N#Cc1cc([N+](=O)[O-])ccc1NC(=O)C(F)(F)F`
Output: > 100 µM

====

# System: SNB-75 CNS
# method_summary: NCI tumour cell line growth inhibition, 48 h
value_kind: GI50

Input: GET /values?readout=GI50&item= `NCCCn1c2c(c3ccc([N+](=O)[O-])cc3c1=O)C(=O)c1cc(-c3ccccc3)ccc1-2`
Output: 0.579 µM

Input: And the next one, O=c1c2c(c3ccccc3n1-c1ccccc1)NC(=S)NC2c1ccc(Cl)cc1 (stereo not drawn) ?
Output: 3.54 µM

Input: Queued: `CCCCCCCCCCC/C=C\C[C@H](O)C/C=C1/C(=O)C=C[C@@H]1C/C=C\CCCC(=O)OC`
Output: 2.07 µM

Input: What about `CCCCCc1cc[n+](CC(=O)c2ccc([N+](=O)[O-])cc2)cc1` ?
Output: 10.9 µM

Input: What do we get for `Clc1nc(Cl)c2c3c(sc2n1)CCCC3` ?
Output: > 100 µM

Input: Cool, now `CN(C)CCC=C1c2ccccc2C(C)(C)c2ccccc21`
Output: 2.86 µM

Input: Follow-up entry: `O=C1C(=O)c2ccccc2C(O)=C1CCCc1ccc(C2CCCC2)cc1`
Output: 6.55 µM

Input: Same question for `c1ccc(Nc2nc(-c3ccccn3)cs2)nc1` please.
Output: 3.03 µM

Input: Field entry: `Cc1[nH]c(C(=O)Nc2ccccc2OC2CCNCC2)c(Cl)c1Cl`
Output: 0.56 µM

Input: Would you kindly repeat that for `COc1cc2nc(-c3ccc(Cl)cc3)cc(OCCCN3CCCC3)c2cc1OC` ?
Output: 1.73 µM

Input: Here is the next compound: CCC(C)[C@H](NC(=O)NC(=O)NC(=O)CI)C(=O)OC (stereo partly drawn)
Output: 10.3 µM

Input: Another compound to look at: Nc1nc2c(nnn2C2OC(CO)C(O)C2O)c(=O)[nH]1 (stereo not drawn)
Output: 5.86 µM

Input: Now consider `O=C1C(Nc2ccc(Br)cc2)=C(I)C(=O)c2ncccc21` and answer again.
Output: 1.24 µM

====

# Tested on: TK-10 renal
# method_summary: NCI tumour cell line growth inhibition, 48 h
value_kind: TGI (µM)
Please reply with the bare figure in µM and do not write the unit itself.

Input: If you can, please state the reported TGI value of `CCN(CC)CCOc1ccc(/C=C2\C[C@H]3[C@H]4CC=C5C[C@@H](O)CC[C@]5(C)[C@H]4CC[C@]3(C)[C@H]2O)cc1OC` .
Output: 11.5

Input: Same read-out for `CC(C)(C)OC(=O)NCCC(=O)NC1(c2cc3ccccc3s2)CCCCC1` ?
Output: 55.4

Input: Follow-up item: `COc1ccc2c(Cc3c4ccccc4cc4ccccc34)cncc2c1O`
Output: 17.6

Input: Quick one: `CCC/C(Cl)=N\OC(=O)Nc1cccc(C(F)(F)F)c1`
Output: 28.8

====

# Test system: OVCAR-5 ovarian
# method_summary: NCI tumour cell line growth inhibition, 48 h
value_kind: TGI

Input: Look up TGI: `Cc1ccc(NC(=O)CC/C(CC(=O)C(C)(C)C)=N/NC(=O)C[N+](C)(C)C)cc1C`
Output: > 100 µM

Input: Query CCCCCCC/C=C/[C@H]1O[C@]2(O)C(=O)C=C3C[C@@H](O[C@@H]4O[C@H](CO)[C@@H](O)C(O)[C@@H]4O)C[C@@H]3[C@H]2C=C1C (some centres undefined) next
Output: 10.8 µM

Input: Repeat for the following compound: `C[C@]12CC[C@H]3[C@@H](CCC4=CC(=O)CC[C@@]43C)[C@@H]1CC[C@@H]2C(=O)COS(=O)(=O)c1ccc(Br)cc1`
Output: 35.2 µM

Input: Item: Cc1ccc2c(c1)C1(OC(=O)c3ccccc31)c1ccc(F)cc1O2 (centres undefined)
Output: > 100 µM

Input: And then `O=C(O)CCNC(=O)c1cc(N(CCBr)CCBr)c([N+](=O)[O-])cc1[N+](=O)[O-]` , what is it?
Output: > 100 µM

Input: Next compound: `NC(=O)c1ncn(CCN2CCN(C(=O)NCCCCCCNC(=O)N3CCN(CCn4cnc(C(N)=O)c4N)CC3)CC2)c1N`
Output: > 100 µM

Input: Also check `CC(C)(CCN=C(N)Nc1ccccn1)c1ccc(C(F)(F)F)cc1`
Output: 30.7 µM

Input: Consider next the compound Cc1cc(C)nc(SCC(=O)OC2CC(C)CCC2C(C)C)n1 (centres undefined) in the same way.
Output: 47.9 µM

Input: For `COC(=O)[C@@]1(Cc2ccc(O)cc2)C[C@@H]2Cc3ccccc3N2N1` then?
Output: > 100 µM

Input: Query `Cn1c(=O)c2ccc(-c3ccc(Br)cc3)nc2n(C)c1=O` next
Output: > 100 µM

Input: Cool, now COc1cc2c(cc1OC)CN1CCCc3cc(OC)c(OC)cc3C1C2 (centres undefined)
Output: > 100 µM

Input: Same for `O=S(=O)(c1ccc(Br)cc1)N1CCN(S(=O)(=O)c2ccc(Br)cc2)CC1`
Output: > 100 µM

Input: Next entry: COc1c2c(cc3c1OCO3)C13C=CC(OC)CC1N(CC3)C2 (centres undefined)
Output: > 100 µM

Input: Same question, `NC(=S)N/N=C/c1ccc(N)cn1` this time
Output: > 10 µM

Input: Follow-up entry: `NC(=O)C(=CNC(=S)Nc1ccc(Cl)c(Cl)c1)C(N)=O`
Output: > 100 µM

Input: How about `CCCCCCCCCCC/C=C\C[C@H](O)C/C=C1/C(=O)C=C[C@@H]1C/C=C\CCCC(=O)OC` ?
Output: 8.58 µM

Input: For C=C1CCC2C3(C)COC(c4c(OC)cccc4OC)OC3CCC2(C)C1C/C=C1/C(=O)OCC1O (centres undefined) then?
Output: 8.63 µM

Input: Consider next the compound `N.N.O=P([O-])([O-])CN(CCN(CP(=O)([O-])[O-])CP(=O)([O-])[O-])CP(=O)([O-])[O-].[Pt+2]` in the same way.
Output: > 100 µM

Input: Please do the same for NC1=NN(c2ccccc2)C(=O)C1/C(=N\NC(=O)c1cc2ccccc2cc1O)C(=O)Nc1cccc(C(F)(F)F)c1 (centres undefined) as well.
Output: 68.4 µM
